- ASSAY COMMENT: Cytotoxicity against human SH-SY5Y cells assessed as survival at 10 uM after 24 hrs by MTT assay relative to control
- Assay type: cell-based
- CONDITION DETAILS: read-out: Survival

MOLECULE SMILES: O=c1cc(-c2ccccc2)oc2cc(OCCCN3CCN(CCCNc4c5c(nc6ccccc46)CCCC5)CC3)cc(O)c12
viability at 24 h, 10 µM [%]: 94.4

---

- TESTED SYSTEM: Cholinesterase (Equus caballus, UniProt P81908)
- Sequence (P81908 whole entry): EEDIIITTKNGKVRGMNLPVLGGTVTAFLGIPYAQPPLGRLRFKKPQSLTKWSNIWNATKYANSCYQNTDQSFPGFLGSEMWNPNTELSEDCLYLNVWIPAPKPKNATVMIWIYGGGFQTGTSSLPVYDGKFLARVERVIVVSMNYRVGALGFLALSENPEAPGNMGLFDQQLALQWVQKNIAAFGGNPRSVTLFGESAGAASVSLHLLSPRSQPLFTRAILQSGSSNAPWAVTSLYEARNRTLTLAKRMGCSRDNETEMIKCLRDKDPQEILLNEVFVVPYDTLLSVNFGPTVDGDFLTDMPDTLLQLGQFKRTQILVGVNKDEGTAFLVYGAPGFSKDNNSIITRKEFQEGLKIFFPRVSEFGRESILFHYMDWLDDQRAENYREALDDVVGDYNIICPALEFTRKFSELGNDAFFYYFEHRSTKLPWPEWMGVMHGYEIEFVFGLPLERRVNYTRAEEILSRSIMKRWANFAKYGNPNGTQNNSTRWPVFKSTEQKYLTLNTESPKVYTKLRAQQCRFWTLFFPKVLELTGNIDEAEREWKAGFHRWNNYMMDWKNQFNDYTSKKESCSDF
pIC50: −log10 of the molar value.

MOLECULE: O=c1cc(-c2ccccc2)oc2cc(OCCCCCN3CCN(CCCNc4c5c(nc6ccccc46)CCCC5)CC3)ccc12
RELATION SIGN: =
pIC50: 6.37
//
MOLECULE: COc1ccc(-c2cc(=O)c3ccc(OCCCN4CCN(CCCNc5c6c(nc7ccccc57)CCCC6)CC4)cc3o2)cc1
RELATION SIGN: =
pIC50: 6.18
//
MOLECULE: O=c1cc(-c2ccccc2)oc2cc(OCCCCCCN3CCN(CCNc4c5c(nc6ccccc46)CCCC5)CC3)ccc12
RELATION SIGN: =
pIC50: 6.54
//
MOLECULE: O=c1cc(-c2ccccc2)oc2cc(OCCCCCCN3CCN(CCCNc4c5c(nc6ccccc46)CCCC5)CC3)ccc12
RELATION SIGN: =
pIC50: 6.38
//
MOLECULE: O=c1cc(-c2ccc(Cl)cc2)oc2cc(OCCCN3CCN(CCCNc4c5c(nc6ccccc46)CCCC5)CC3)ccc12
RELATION SIGN: =
pIC50: 6.00
//
MOLECULE: O=c1cc(-c2ccccc2)oc2cc(O)ccc12 [7-HYDROXYFLAVONE]
RELATION SIGN: <
pIC50: 4.00
//
MOLECULE: O=c1cc(-c2ccccc2)oc2cc(OCCCCN3CCN(CCNc4c5c(nc6ccccc46)CCCC5)CC3)ccc12
RELATION SIGN: =
pIC50: 6.71
//
MOLECULE: O=c1cc(-c2ccccc2)oc2cc(OCCCCCN3CCN(CCNc4c5c(nc6ccccc46)CCCC5)CC3)ccc12
RELATION SIGN: =
pIC50: 6.59
//
MOLECULE: O=c1ccoc2cc(OCCCN3CCN(CCCNc4c5c(nc6ccccc46)CCCC5)CC3)cc(O)c12
RELATION SIGN: =
pIC50: 7.35
//
MOLECULE: O=c1cc(-c2ccccc2)oc2cc(OCCCN3CCN(CCNc4c5c(nc6ccccc46)CCCC5)CC3)ccc12
RELATION SIGN: =
pIC50: 6.51
//
MOLECULE: Nc1ccc(-c2cc(=O)c3ccc(OCCCN4CCN(CCCNc5c6c(nc7ccccc57)CCCC6)CC4)cc3o2)cc1
RELATION SIGN: =
pIC50: 6.16
//
MOLECULE: COc1cc(OCCCN2CCN(CCCNc3c4c(nc5ccccc35)CCCC4)CC2)cc2oc(-c3ccccc3)cc(=O)c12
RELATION SIGN: =
pIC50: 6.44
//
MOLECULE: O=c1ccoc2cc(OCCCN3CCN(CCCNc4c5c(nc6ccccc46)CCCC5)CC3)ccc12
RELATION SIGN: =
pIC50: 7.59
//
MOLECULE: O=c1cc(-c2ccccc2)oc2cc(OCCN3CCN(CCNc4c5c(nc6ccccc46)CCCC5)CC3)ccc12
RELATION SIGN: =
pIC50: 6.28
//
MOLECULE: Cc1ccc(-c2cc(=O)c3ccc(OCCCN4CCN(CCCNc5c6c(nc7ccccc57)CCCC6)CC4)cc3o2)cc1
RELATION SIGN: =
pIC50: 6.24
//
MOLECULE: O=c1cc(-c2ccc([N+](=O)[O-])cc2)oc2cc(OCCCN3CCN(CCCNc4c5c(nc6ccccc46)CCCC5)CC3)ccc12
RELATION SIGN: =
pIC50: 6.34
//
MOLECULE: O=c1cc(-c2ccccc2)oc2cc(OCCCN3CCN(CCCNc4c5c(nc6ccccc46)CCCC5)CC3)ccc12
RELATION SIGN: =
pIC50: 6.68
